B1: LINE1-full (parent)
chain: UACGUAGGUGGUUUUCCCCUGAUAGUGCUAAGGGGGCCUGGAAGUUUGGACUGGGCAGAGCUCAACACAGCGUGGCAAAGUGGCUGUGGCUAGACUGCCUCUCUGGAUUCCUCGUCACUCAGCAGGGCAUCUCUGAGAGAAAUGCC

Variants of: B1
Experiment: self-cleavage, relative activity (ratio to wild type); higher = more cleavage; in vitro, sequencing; the parent is a self-cleaving ribozyme
REPORTED_METRIC: self-cleavage
In your answer, state the number alone without any accompanying words.

Exercise: Data request, read-out self-cleavage, for UACGUAGGUGGUUGUCCCCUGAUAGUGCUAAGGGGGCCUGGAAGUUUGGACUGGGCAGAGCUCAACACAGCGUGGCAAAGUGGCUGUGGCUAGACUGCCUCUCUGGAUUCCUCGUCUCUCAGCAGGGCAUCUCUGAGAGAAAUGCC [U14G A117U]
Solution: 0.78

Exercise: Data request, read-out self-cleavage, for UACGUAGGUGGUUUUCCCCUGAUAGUGCUAAGGGGGCAUGGAAGUUUGGACUGGGCAGAGCUCAACACAGCGUGGCAAAGUGGCUGUGGCUAGACUGCCUCUCUGGAUUCCUCGUCACUCAGCAGGGCACCUCUGAGAGAAAUGCC [C38A U130C]
Solution: 1.41

Exercise: Data request, read-out self-cleavage, for UACGUAGGUGGUUUUCCCCCGAUAGUGCUAAGGGGGCCUGGAAGUUUGGACUGGGCAGAGCUCAACACAGCGUGGCAAAGUGGCUGUGGCUAGACUGCUUCUCUGGAUUCCUCGUCACUCAGCAGGGCAUCUCUGAGAGAAAUGCC [U20C C99U]
Solution: 0.68

Exercise: Data request, read-out self-cleavage, for UACGUAGGUGGUUUUCCCCUGAUAGUGCUAAGGUGGCCUGGAAGUUUGGACUGGGCAGAGCUCAACACAGCGUGGCAAAGUGGCUGUGGCUAGACUGCCUCUCUGGUUUCCUCGUCACUCAGCAGGGCAUCUCUGAGAGAAAUGCC [G34U A107U]
Solution: 1.96

Exercise: Data request, read-out self-cleavage, for UACGUAGGUGGUUUUCCCCUGAUAGUGCUAAGGGGGCCUGGAAGUUUGGACUGGGCAGAGCGCAACACAGCGUGGCAAAGUGGCUGUGGCUAGACUGCCUCUCUGGACUCCUCGUCACUCAGCAGGGCAUCUCUGAGAGAAAUGCC [U62G U108C]
Solution: 0.07

Exercise: Data request, read-out self-cleavage, for UACGUAGGUGGUUUUCCCCUGAUAGUGCUAAGGGGGCCCGGAAGUUUGGACUGGGCAGAGCCCAACACAGCGUGGCAAAGUGGCUGUGGCUAGACUGCCUCUCUGGAUUCCUCGUCACUCAGCAGGGCAUCUCUGAGAGAAAUGCC [U39C U62C]
Solution: 0.09

Exercise: Data request, read-out self-cleavage, for UACGGAGGUGGUUUUCCCCUGAUAGUGCUAAGGGGGCCUGGAAGUUUGGACUGGGCAGAGCUCAACACAGCGUGGCAAAGUGGCUGUGGCUAGACUGCCUCUCUGGAUUCCUCGUCACUCAGCAGGGCAUCUCUGAGAGACAUGCC [U5G A141C]
Solution: 0.56

Exercise: Data request, read-out self-cleavage, for UACGUAGGUGGUUUUCCCCUGAUAGUGCUAAGGGGGCCUGGAAGUUUGGACUGGGCAGAGCUCAACACAGCGUGGCAAAGUGGCUGUGGCUAGACUGCCUCUCUGGAUUUCUCGUCACUCAGCAGGGCAUCUCUGAGAGAGAUGCC [C110U A141G]
Solution: 1.4

Exercise: Data request, read-out self-cleavage, for UACGUAGAUGGUUUUCCCCUGAUAGUGCUAAGGGGGCCUGGAAGUUUGGACUGGGCAGAGCUCGACACAGCGUGGCAAAGUGGCUGUGGCUAGACUGCCUCUCUGGAUUCCUCGUCACUCAGCAGGGCAUCUCUGAGAGAAAUGCC [G8A A64G]
Solution: 0.42

Exercise: Data request, read-out self-cleavage, for UACGUAGGUGGAUUUCCCCUGAUAGUGCUAAGGGGGCCUGGAAGUUUGGACUGGGCAGAGCUCAACACAGCGUGGCAAAGUGGCUGUGGCUAGACUGCCUCUCUGGAUUCCUCGUCUCUCAGCAGGGCAUCUCUGAGAGAAAUGCC [U12A A117U]
Solution: 1.36

Exercise: Data request, read-out self-cleavage, for UACGUAGGUGGUUUUCCCCUGAUAGUGCUAAGGGGGCCUUGAAGUUUGGACUGGGCAGAGCUCAACACAGCGUGGCAAAGUGGCUGUGGCUAGACUGCCUCUCUGGAUUCCUCGUCACUCAGCAGGGCAUCUCUGAGAGUAAUGCC [G40U A140U]
Solution: 1.79

Exercise: Data request, read-out self-cleavage, for UACGUAGGUGGUUUUCCCCUGAUAGUGCUAAGGGGGCCUGGAAGUUUGGACUGGGCAGAGCUCAACACAGCGUGGCAUAGUGGCUGUGGCUAGACUGCCUCUCUGGAUUCCUCGUCGCUCAGCAGGGCAUCUCUGAGAGAAAUGCC [A78U A117G]
Solution: 2.93

Exercise: Data request, read-out self-cleavage, for UACGUAGGUGGUUUUCCCCUGGUAGUGCUAAGGGGGCCUGGAAGUUUGGACUGGGCAGAGCUCAACACAGCGUGGCAAAGUGGCUGUGACUAGACUGCCUCUCUGGAUUCCUCGUCACUCAGCAGGGCAUCUCUGAGAGAAAUGCC [A22G G89A]
Solution: 0.09

Exercise: Data request, read-out self-cleavage, for UACGUAGGUGGUUUUCCCCCGAUAGUGCUAAGGGGGCCUGGAAGUUUGGGCUGGGCAGAGCUCAACACAGCGUGGCAAAGUGGCUGUGGCUAGACUGCCUCUCUGGAUUCCUCGUCACUCAGCAGGGCAUCUCUGAGAGAAAUGCC [U20C A50G]
Solution: 0.66

Exercise: Data request, read-out self-cleavage, for UACGUAGGUGGUUUUCCCCUGAUAGUGCUAAGGGGGCCUGGAAGUUUGGACUGGGCAGAGCUCAACACAGCGUGGCAAUGUGGCUGUGGCUAGACUGCCUCUCUGGAUUCCUCGUAACUCAGCAGGGCAUCUCUGAGAGAAAUGCC [A79U C116A]
Solution: 1.49

Exercise: Data request, read-out self-cleavage, for UACGUAGGUGGUUUUCCCCUGAUAGUGCUAAGGGGGCCUGGAAGUUUGGACUGGGCAGAGCUCAACACUGCGUGGCAAAGUGGCUGUGGCUAGACUGCCUCCCUGGAUUCCUCGUCACUCAGCAGGGCAUCUCUGAGAGAAAUGCC [A69U U102C]
Solution: 0.06

Exercise: Data request, read-out self-cleavage, for UACGUAGGUGGUUUUCCCCUGAUAGUGCUAAGGGGGCCUGGAAGUUUGGACUGGGCAGAGCUCAACACAGCGUGUCAAAGUGGCUGUGGCUAGACUGCCUCUCUGGAUUCCUCGUCACUCAGCAGGGCAUCUCUGAGAGAAAUGCC [G75U]
Solution: 0.62

Exercise: Data request, read-out self-cleavage, for UACGUAGGUGGUUUUCCCCUGAUAGUGCUAAGGGGGCCUGGAAGUUUGGACUGGGCAAAGCUCAACACAGCGUGGCAAAGUGGCUGUGGCUAGACUGCCUCUCUGGAUUCCUCGUCACUCAGCAGGGCAUCUCUGAGAGAAACGCC [G58A U143C]
Solution: 0

Exercise: Data request, read-out self-cleavage, for UACGUAGGUGGUUUUCCCCUGAUAGUGCUAUGGGGGCCUGGAAGUUUGGACUGGGCAGAGCUCAACACAGCGUGGCAAAGUGGCUGUGGCUAGACUGCCUCUCUGGAUUCCACGUCACUCAGCAGGGCAUCUCUGAGAGAAAUGCC [A31U U112A]
Solution: 1.8

Exercise: Data request, read-out self-cleavage, for UACGUAGGUGGCUUUCCCCUGAUAGUGCUAAGGGGGCCUGGAAGUUUGGACUGGGAAGAGCUCAACACAGCGUGGCAAAGUGGCUGUGGCUAGACUGCCUCUCUGGAUUCCUCGUCACUCAGCAGGGCAUCUCUGAGAGAAAUGCC [U12C C56A]
Solution: 0.01
